test: Biodistribution; type: in vivo, mice; settings: athymic nude, mouse, liver, iv, 10 nmol
value_kind: tissue uptake dose at 6 h (%ID)
# unit: %ID | format: bare number

Query CCN1C(=CC=CC=CC2=[N+](CCCCCC(=O)NCCN3C(=O)CC(SC[C@@H](NC(=O)[C@@H](CCCNC(=N)N)NC(=O)[C@@H](CCCNC(=N)N)NC(=O)[C@@H](CCCNC(=N)N)NC(=O)[C@@H](CCCNC(=N)N)NC(=O)[C@@H](CCCNC(=N)N)NC(=O)[C@@H](CCCNC(=N)N)NC(=O)[C@@H](CCCNC(=N)N)NC(=O)[C@@H](CCCNC(=N)N)NC(=O)[C@H](N)CCCNC(=N)N)C(N)=O)C3=O)c3ccc(S(=O)(=O)[O-])cc3C2(C)C)C(C)(C)c2cc(S(=O)(=O)O)ccc21 (stereo partly shown) yields tissue uptake dose at 6 h of 84
